Tested on: cornea of rats with dry eye syndrome (ELGE)
PROTOCOL DESCRIPTION: Corneal permeability of fluorescent dye (corneal damage) in ELGE rats with dry eye syndrome
Assay type: in vivo, rat
MEASUREMENT SETUP: Table 6, study of YDE-001 to YDE-028, 3 mg/ml, 5 μl/eye twice daily, day 14
Square brackets hold non-standard residues; d marks the D form. Peptide text beside a SMILES is read from it. Hyp = O=C(O)[C@@H]1C[C@@H](O)CN1
PROPERTY LABEL: Permeability of fluorescent dye (%)

1. COC(=O)C[C@H](NC(=O)[C@H](CCC(N)=O)NC(=O)CNC(=O)[C@@H]1C[C@@H](O)CN1)C(=O)NCC(=O)N[C@@H](CC(C)C)C(=O)N[C@@H](C)C(=O)NCC(=O)N1CCC[C@H]1C(=O)N[C@@H](CCCCN)C(=O)O [YDE-027] (H-[Hyp]GQD(OMe)GLAGPK-OH)
50.24
2. CC(C)C[C@H](NC(=O)CNC(=O)[C@H](Cc1ccccc1)NC(=O)[C@H](CCC(N)=O)NC(=O)CNC(=O)[C@@H]1C[C@@H](O)CN1)C(=O)N[C@@H](C)C(=O)NCC(=O)N1CCC[C@H]1C(=O)N[C@@H](CCCCN)C(=O)O [YDE-012] (H-[Hyp]GQFGLAGPK-OH)
31.01
3. CNC(=O)C[C@H](NC(=O)[C@H](CCC(N)=O)NC(=O)CNC(=O)[C@@H]1C[C@@H](O)CN1)C(=O)NCC(=O)N[C@@H](CC(C)C)C(=O)N[C@@H](C)C(=O)NCC(=O)N1CCC[C@H]1C(=O)N[C@@H](CCCCN)C(=O)O [YDE-028] (H-[Hyp]GQD(NHMe)GLAGPK-OH)
41.17
4. CC(C)C[C@H](NC(=O)CNC(=O)[C@H](Cc1c[nH]c2ccccc12)NC(=O)[C@H](CCC(N)=O)NC(=O)CNC(=O)[C@@H]1C[C@@H](O)CN1)C(=O)N[C@@H](C)C(=O)NCC(=O)N1CCC[C@H]1C(=O)N[C@@H](CCCCN)C(=O)O [YDE-014] (H-[Hyp]GQWGLAGPK-OH)
31.15

Source listed as patent US11613558B2.
